Hello, the source for this data is patent US20250034186A1, in case you need it.

# System: HRVc15 replicon
# Assay Summary: HRVc15 HeLa replicon EC50
# Format: cell-based, human rhinovirus
# Assay Conditions: Human rhinovirus sp., HRV15; HRVc15 replicon in H1-HeLa cells, 48 hrs, luciferase; read-out: HRV15 Rep EC50
Some compounds, each annotated with its measured pEC50.
Note on pEC50: it is the negative log10 of concentration, concentration in mol/L.

| Compound | Test Target | pEC50 |
| --- | --- | --- |
| C[C@H](N[P@](=O)(OC[C@@]1(C#N)O[C@@H](c2ccc3c(N)ncnn23)[C@H](O)[C@@H]1O)Oc1ccccc1)C(=O)OC1CCCCC1 | HRVc15 replicon | 8.05 |
| CCC(CC)COC(=O)[C@H](C)NP(=O)(OC[C@@]1(C#N)O[C@@H](c2ccc3c(N)ncnn23)[C@H](O)[C@@H]1O)Oc1ccccc1 (stereo partly drawn) [Compound 2, reference compound] | HRVc15 replicon | 7.68 |

Entry CCC(CC)COC(=O)[C@H](C)N[P@](=O)(OC[C@@]1(C#N)O[C@@H](c2ccc3c(N)ncnn23)[C@H](O)[C@@H]1O)Oc1ccccc1 , tested on HRVc15 replicon, has a reported pEC50 of 7.77

----------
Some compounds, each annotated with its measured CC50 at 5 days.
# Assay Summary: in vitro
# Assay type: cell-based
# Assay Conditions: human, read-out: CC50 GALPC3
# Description: Compounds were tested in a high-throughput 384-well assay format for cytotoxicity in galactose-adapted PC3 cells (human prostate cancer cell line). […] Assay plates are read on the Envision plate reader. […] CC50 values were calculated in Accord (on-line tool) using a one-site dose-response model to generate sigmoidal curve fits.

| Substance Smiles | Result |
| --- | --- |
| C[C@H](N[P@](=O)(OC[C@@]1(C#N)O[C@@H](c2ccc3c(N)ncnn23)[C@H](O)[C@@H]1O)Oc1ccccc1)C(=O)OC1CCCCC1 | > 44.4 µM |

Entry under test: CCC(CC)COC(=O)[C@H](C)N[P@](=O)(OC[C@@]1(C#N)O[C@@H](c2ccc3c(N)ncnn23)[C@H](O)[C@@H]1O)Oc1ccccc1 . Its CC50 at 5 days was > 83.5 µM

----------
Some compounds, each annotated with its measured CC50 at 5 days.
# Assay Summary: SAEC cytotoxicity assay
# Assay type: cell-based
# Assay Conditions: human, small airway epithelial cells (SAEC)
# Description: Human Small Airway Epithelial cells (SAEC) were purchased from Lonza (Walkersville, MD, Cat #CC-2547) and cultured in supplemented Small Airway Epithelial Cell Growth Medium (SAGM) (lonza, Walkersville, MD, Cat #CC-3118). The cells were passaged 1-2 times per week to maintain <80% confluency per manufacturer's protocol. The SAEC cells were discarded after 5 passages in culture. […]
Express your answer in µM, writing the number without its unit.

Guide cases for CC50 at 5 days, answers given:
| Compound | Outcome Measure | Endpoint Unit | Numeric Result |
| --- | --- | --- | --- |
| CCC(CC)COC(=O)[C@H](C)NP(=O)(OC[C@@]1(C#N)O[C@@H](c2ccc3c(N)ncnn23)[C@H](O)[C@@H]1O)Oc1ccccc1 (stereo partly drawn) [Compound 2, reference compound] | CC50 at 5 days | µM | 28.3 |
| C[C@H](N[P@](=O)(OC[C@@]1(C#N)O[C@@H](c2ccc3c(N)ncnn23)[C@H](O)[C@@H]1O)Oc1ccccc1)C(=O)OC1CCCCC1 [Formula I] | CC50 at 5 days | µM | 123 |

Then there is this compound:
Entry under test: CCC(CC)COC(=O)[C@H](C)N[P@](=O)(OC[C@@]1(C#N)O[C@@H](c2ccc3c(N)ncnn23)[C@H](O)[C@@H]1O)Oc1ccccc1 [Compound 6] . Its CC50 at 5 days was 27.2

----------
# Assay Summary: NHBE cytotoxicity assay
# Type: cell-based
# Assay Conditions: human, normal bronchial epithelial (NHBE) cells
Some compounds, each annotated with its measured CC50 at 5 days.
Express your answer in µM, writing the number without its unit.

Entry under test: CCC(CC)COC(=O)[C@H](C)N[P@](=O)(OC[C@@]1(C#N)O[C@@H](c2ccc3c(N)ncnn23)[C@H](O)[C@@H]1O)Oc1ccccc1 [Compound 6] . Its CC50 at 5 days was 24.4

Entry under test: CCC(CC)COC(=O)[C@H](C)NP(=O)(OC[C@@]1(C#N)O[C@@H](c2ccc3c(N)ncnn23)[C@H](O)[C@@H]1O)Oc1ccccc1 (stereo partly shown) [Compound 2, reference compound] . Its CC50 at 5 days was 29.1

----------
# Assay Summary: MRC5 cytotoxicity assay
# Assay type: cell-based
# Assay Conditions: human, MRC5 cells
Some compounds, each annotated with its measured CC50 at 5 days.

Entry under test: CCC(CC)COC(=O)[C@H](C)NP(=O)(OC[C@@]1(C#N)O[C@@H](c2ccc3c(N)ncnn23)[C@H](O)[C@@H]1O)Oc1ccccc1 (stereo partly shown) [Compound 2, reference compound] . Its CC50 at 5 days was > 44.4 µM

Entry under test: CCC(CC)COC(=O)[C@H](C)N[P@](=O)(OC[C@@]1(C#N)O[C@@H](c2ccc3c(N)ncnn23)[C@H](O)[C@@H]1O)Oc1ccccc1 . Its CC50 at 5 days was > 88.4 µM

Entry under test: C[C@H](N[P@](=O)(OC[C@@]1(C#N)O[C@@H](c2ccc3c(N)ncnn23)[C@H](O)[C@@H]1O)Oc1ccccc1)C(=O)OC1CCCCC1 . Its CC50 at 5 days was > 44.4 µM

Entry under test: CCOC(=O)[C@H](C)NP(=O)(OC[C@@]1(C#N)O[C@@H](c2ccc3c(N)ncnn23)[C@H](O)[C@@H]1O)Oc1ccccc1 (stereo partly shown) [Compound 1, reference compound] . Its CC50 at 5 days was > 44.4 µM

----------
# Assay Summary: Stability assay in cynomolgus monkey hepatic S9 fractions
# Format: in vitro ADME
# Assay Conditions: 37° C., NADPH and UDPGA, read-out: Cyno HepS9 t1/2
Outcome Measure: half-life at 2 μM (min)
Express your answer in min, writing the number without its unit.

Guide cases for half-life at 2 μM, answers given:
| Molecule | half-life at 2 μM [min] |
| --- | --- |
| CCC(CC)COC(=O)[C@H](C)N[P@](=O)(OC[C@@]1(C#N)O[C@@H](c2ccc3c(N)ncnn23)[C@H](O)[C@@H]1O)Oc1ccccc1 [Compound 6] | 2 |
| C[C@H](N[P@](=O)(OC[C@@]1(C#N)O[C@@H](c2ccc3c(N)ncnn23)[C@H](O)[C@@H]1O)Oc1ccccc1)C(=O)OC1CCCCC1 [Formula I] | 26 |

Entry under test: CCC(CC)COC(=O)[C@H](C)NP(=O)(OC[C@@]1(C#N)O[C@@H](c2ccc3c(N)ncnn23)[C@H](O)[C@@H]1O)Oc1ccccc1 (stereo partly shown) [Compound 2, reference compound] . Its half-life at 2 μM was 3

Entry under test: CCC(CC)COC(=O)[C@H](C)N[P@@](=O)(OC[C@@]1(C#N)O[C@@H](c2ccc3c(N)ncnn23)[C@H](O)[C@@H]1O)Oc1ccccc1 (single isomer, unassigned) [Compound 7] . Its half-life at 2 μM was 2

----------
Some compounds, each annotated with its measured pEC50.
# Test system: RSV A2
# Assay Summary: RSV NHBE EC50, RSV A2 antiviral assay
# Type: cell-based
# Assay Conditions: human respiratory syncytial virus, 96 h; RSV A2 in NHBE cells, 4 days
Note on pEC50: it is the negative log10 of concentration, concentration in mol/L.

| Compound | Test Target | pEC50 |
| --- | --- | --- |
| CCC(CC)OC(=O)[C@H](C)NP(=O)(OC[C@@]1(C#N)O[C@@H](c2ccc3c(N)ncnn23)[C@H](O)[C@@H]1O)Oc1ccccc1 (some centres unmarked) | RSV A2 | 5.91 |
| CCOC(=O)[C@H](C)N[P@](=O)(OC[C@@]1(C#N)O[C@@H](c2ccc3c(N)ncnn23)[C@H](O)[C@@H]1O)Oc1ccccc1 | RSV A2 | 6.03 |
| C[C@H](N[P@@](=O)(OC[C@@]1(C#N)O[C@@H](c2ccc3c(N)ncnn23)[C@H](O)[C@@H]1O)Oc1ccccc1)C(=O)OC1CCCCC1 (single isomer, unassigned) | RSV A2 | 6.20 |

Entry CC(C)OC(=O)[C@H](C)NP(=O)(OC[C@@]1(C#N)O[C@@H](c2ccc3c(N)ncnn23)[C@H](O)[C@@H]1O)Oc1ccccc1 (some centres unmarked) , tested on RSV A2, has a reported pEC50 of 5.94

Entry CC(C)OC(=O)[C@H](C)N[P@](=O)(OC[C@@]1(C#N)O[C@@H](c2ccc3c(N)ncnn23)[C@H](O)[C@@H]1O)Oc1ccccc1 , tested on RSV A2, has a reported pEC50 of 6.06

Entry C[C@H](NP(=O)(OC[C@@]1(C#N)O[C@@H](c2ccc3c(N)ncnn23)[C@H](O)[C@@H]1O)Oc1ccccc1)C(=O)OC1CCCCC1 (some centres unmarked) , tested on RSV A2, has a reported pEC50 of 7.12

Entry CCC(CC)COC(=O)[C@H](C)NP(=O)(OC[C@@]1(C#N)O[C@@H](c2ccc3c(N)ncnn23)[C@H](O)[C@@H]1O)Oc1ccccc1 (some centres unmarked) [Compound 2, reference compound] , tested on RSV A2, has a reported pEC50 of 7.12

Entry C[C@H](N[P@](=O)(OC[C@@]1(C#N)O[C@@H](c2ccc3c(N)ncnn23)[C@H](O)[C@@H]1O)Oc1ccccc1)C(=O)OC1CCCCC1 , tested on RSV A2, has a reported pEC50 of 6.91
